Overview of reported log10(IC50) across a group of molecules:
- study-target: ABL1 (T315I) (Homo sapiens, UniProt P00519, T315I)
- experiment-notes: Luminescence-based ABL kinase assay (ADP-Glo, 300 μM ATP), T315I mutant
- Assay type: biochemical
Recall that a logarithmic scale is used here: each number is log10 of IC50 in nM.

INSERT INTO assay_data (molecule, data_value) VALUES
  ('COc1cc2cn[nH]c2cc1-c1c[nH]c2nc(NC(=O)[C@H]3C[C@H]3F)ccc12 [Compound 59]', 1.04);

What log10(IC50) value was documented for this molecule, COc1nc2ncsc2cc1-c1c[nH]c2nc(NC(=O)[C@@H]3C[C@@H]3F)ccc12 [Compound 146] ?
1.15

Again, but for COc1cc2[nH]nnc2cc1-c1c[nH]c2nc(NC(=O)[C@@H]3C[C@@H]3F)ccc12 [Compound 96]
0.95

Again, but for O=C(Nc1ccc2c(-c3ccc4nccn4c3)c[nH]c2n1)[C@@H]1C[C@@H]1F [Compound 71]
1.74

Again, but for O=C(Nc1ccc2c(-c3ccc4[nH]ncc4c3)c[nH]c2n1)C1CC1 [Compound 21]
0.94

Again, but for COc1cccc(OC)c1-c1c[nH]c2nc(NC(=O)C3CC3CCN(C)C)ccc12 (single isomer, unassigned) [Example S205, Enantiomer 2]
1.32

Again, but for COc1nc2cn[nH]c2cc1-c1c[nH]c2nc(NC(=O)C3CC3)ccc12 [Compound 60]
2.62

Again, but for CNc1ncccc1-c1c[nH]c2nc(NC(=O)C3CC3)ccc12 [Compound 37]
2.01

Data provenance: patent US20240043420A1
